- TARGET OR TEST SYSTEM: T1, human CX3CR1 (human, UniProt P49238 1-355)
- T1 construct: overexpressed on CHO, BA/F3 or HEK293T cells; also called huCX3CR1; hCX3CR1
- T1 sequence: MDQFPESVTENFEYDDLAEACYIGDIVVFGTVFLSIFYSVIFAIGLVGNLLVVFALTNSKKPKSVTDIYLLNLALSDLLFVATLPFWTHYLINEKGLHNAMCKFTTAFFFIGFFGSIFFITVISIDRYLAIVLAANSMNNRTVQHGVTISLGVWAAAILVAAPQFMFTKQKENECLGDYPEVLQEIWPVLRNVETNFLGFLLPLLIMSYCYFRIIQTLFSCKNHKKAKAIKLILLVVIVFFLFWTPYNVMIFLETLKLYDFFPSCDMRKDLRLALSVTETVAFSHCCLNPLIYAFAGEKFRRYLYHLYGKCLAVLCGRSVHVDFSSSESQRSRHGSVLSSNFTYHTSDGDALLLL
- METHOD SUMMARY: A647-fractalkine competition FACS, CHO-huCX3CR1
MEASURED PARAMETER: % block (%)
Give your result in % as a bare value.

See these solved cases before continuing.
>>> assay_result("CX3CR1BIIPMP54D5 (VHH, also called 54D05; CX3CR1BII54D5; not shown: C-terminal c-myc and His6 tags) VHH: EVQLVESGGGSVQAGESLRLSCAASGSIFSSNAMAWYRQAPPGKQRDLVALINSVGITKYADSVKGRFTISSDNAKNTVYLEMNSLKPEDTAVYYCTSDGRRGWDTRYWGQGTQVTVSS")
102
>>> assay_result("CX3CR1BIIPMP11H11 (VHH, family 9; also called CX3CR1BII11H11; not shown: C-terminal c-myc and His6 tags) VHH: EVQLVESGGGLVQAGGSLRLSCVASGRTFSSYAMGWFRQAPGKERAFVAGISGSASRKYYADSVKGRFTVSRDNARNTVYLQMNSLKPEDTAVYYCAASNSYPKVQFDYYGQGTQVTVSS")
100
>>> assay_result("CX3CR1BIIPMP54G3 (VHH, also called 54G03; not shown: C-terminal c-myc and His6 tags) VHH: EVQLVESGGGSVQAGESLRLSCAASGSIFSSNAMAWYRQAPGKQRDLVALINSVGITKYADSVKGRFTISRDNAKNTVYLQMNSLKPEDTAVYYCTSDPRRGWDTRYWGQGTLVTVSS")
107

# ---- query binder ----
[ask] What % block value was documented for this binder, CX3CR1BIIPMP54A7 (VHH, also called 54A07; not shown: C-terminal c-myc and His6 tags) VHH: EVQLVESGGGSVQAGESLRLSCAASGTIFSSNAMAWYRQAPGKQRDLVAGINSVDITKYADSVKGRFTISRDNAKNTVYLQMNSLKPEDTAVYYCTSDPRRGWNTRYWGQGTQVTVSS ?
[reply] 78

Values compiled from patent US20130224224A1.
